# Procedure Text: qHTS of pediatric cancer cell lines to identify multiple opportunities for drug repurposing: Confirmatory screen for NB-EBc1 cells (AID 1347115);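 also: cells exposed to compound for 48 h before the viability read; nearly all actives have a fitted effect of over 45% in size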
# Measurement Parameters: NB-EBc1 neuroblastoma cells, viability (cytotoxicity); series mostly up to 45.9 µM
Inconclusive results are not listed. Active and inactive are the calls of the source. Calls follow the shape of the dose curve; as a rule, active = well fitted cell-killing curve with a large enough effect; inconclusive = small, poorly fitted or top-dose-only effect, or effect the other way; inactive = no such curve, though single readings can be large or run the other way.
Reply using exactly one outcome from YES for active, NO for inactive

- CC[C@@H]1C(=O)N(C)c2cnc(Nc3ccc(C(=O)NC4CCC(N5CCN(CC6CC6)CC5)CC4)cc3OC)nc2N1C(C)C (stereo not given in full): NO
- CC(C)[C@H](C(=O)Nc1ccc(C(=O)NO)cc1)c1ccccc1: YES

Inquiry: Called result for COc1cc2c(Oc3ccc(NC(=O)C4(C(=O)Nc5ccc(F)cc5)CC4)cc3F)ccnc2cc1OCCCN1CCOCC1
Reply text: YES

Inquiry: Called result for C=CC(=O)N1CCC[C@@H](n2nc(-c3ccc(Oc4ccccc4)cc3)c3c(N)ncnc32)C1
Reply text: YES

* * *

# Procedure Text: qHTS of pediatric cancer cell lines to identify multiple opportunities for drug repurposing: Primary screen for Rh30 cells (AID 1347107); also: nearly all actives have a fitted effect of over 75% in size
# Measurement Parameters: Rh30 rhabdomyosarcoma viability, CellTiter-Glo luminescence, 48 h; series mostly up to 46 µM
Inconclusive results are not listed. The source made the active and inactive calls. Calls come from the whole dose curve; as a rule, active = well fitted cell-killing curve with a large enough effect; inconclusive = small, poorly fitted or top-dose-only effect; inactive = no such curve, though single readings can be large or run the other way.
Reply using exactly one outcome from active, inactive

As a guide, the following entries are already answered.
- C=CC(=O)Nc1cccc(Oc2nc(Nc3ccc(N4CCN(C)CC4)cc3OC)ncc2Cl)c1: active
- Cn1c2cc(S(C)=O)sc2c2cnn(Cc3cccc(N)c3)c(=O)c21 (stereo not given): inactive

Inquiry: Called result for CC(C)(O)c1cc2nc(-c3cnc(N)nc3)nc(N3CCOCC3)c2s1
Reply text: active

Inquiry: Called result for CCC(=C(c1ccccc1)c1ccc(OCCN(C)C)cc1)c1ccccc1
Reply text: inactive

Inquiry: Called result for CCC1=C[C@@H]2CN(C1)Cc1c([nH]c3ccccc13)[C@@](C(=O)OC)(c1cc3c(cc1OC)N(C)[C@@H]1[C@@](O)(C(=O)OC)[C@H](OC(C)=O)[C@]4(CC)C=CCN5CC[C@]31[C@@H]54)C2
Reply text: inactive

Inquiry: Called result for CN1CC[C@@H](c2c(O)cc(O)c3c(=O)cc(-c4ccccc4Cl)oc23)[C@@H](O)C1
Reply text: inactive

Inquiry: Called result for CC1=C(CO)C(=O)O[C@@H]([C@@H](C)[C@H]2CC[C@H]3[C@@H]4C[C@H]5O[C@]56[C@@H](O)C=CC(=O)[C@]6(C)[C@@H]4CC[C@]23C)C1
Reply text: active

Inquiry: Called result for C=CC(=O)N1CCC[C@@H](n2nc(-c3ccc(Oc4ccccc4)cc3)c3c(N)ncnc32)C1
Reply text: active

Inquiry: Called result for Cn1cncc1[C@@](N)(c1ccc(Cl)cc1)c1ccc2c(c1)c(-c1cccc(Cl)c1)cc(=O)n2C
Reply text: active

Inquiry: Called result for COc1ccc(C=Cc2cc(OC)c(OC)c(OC)c2)cc1O
Reply text: inactive

Inquiry: Called result for CCc1c2c(nc3ccc(O)cc13)-c1cc3c(c(=O)n1C2)COC(=O)[C@]3(O)CC
Reply text: active

Inquiry: Called result for CN1c2cc(O)c(N=NC(N)=O)cc2CC1S(=O)(=O)O (stereo not given)
Reply text: inactive

Inquiry: Called result for Cc1[nH]nc2ccc(-c3cncc(OC[C@@H](N)Cc4ccccc4)c3)cc12
Reply text: inactive

* * *

# Procedure Text: qHTS of pediatric cancer cell lines to identify multiple opportunities for drug repurposing: Primary screen for BT-12 cells (AID 1347101); also: nearly all actives have a fitted effect of over 25% in size
# Measurement Parameters: BT-12 viability, CellTiter-Glo luminescence, 48 h; series mostly up to 57.3 µM
Inconclusive results are not listed. The source made the active and inactive calls. The call rests on the fitted dose curve; in most records, active means well fitted cell-killing curve with a large enough effect; inconclusive means small, poorly fitted or top-dose-only effect; inactive means flat fitted curve, though single readings scatter.
Reply using exactly one outcome from 1 = active, -1 = inactive

As a guide, the following entries are already answered.
* CN[C@H]1CCc2cc(OC)c(OC)c(OC)c2-c2ccc(OC)c(=O)cc21 | 1
* N#Cc1c(O)c2c(-c3ccc(-c4ccccc4O)cc3)csc2[nH]c1=O | -1
* CN1CCN(c2ccc3nc(-c4c(N)c5c(F)cccc5[nH]c4=O)[nH]c3c2)CC1 | 1
* C1Cc2[nH]nc(-c3nn[nH]n3)c2C1 | -1
* CNC(=O)CN1CCC(Oc2cc3c(Nc4cccc(Cl)c4F)ncnc3cc2OC)CC1 | 1

Next, consider the following compound.
Inquiry: Called result for Cc1cc(Nc2cc(NC(=O)c3c(Cl)cccc3Cl)ccn2)nc(N)n1
Reply text: 1

* * *

# Procedure Text: qHTS of pediatric cancer cell lines to identify multiple opportunities for drug repurposing: Confirmatory screen for U-2 OS cells (AID 1347122); also: potency is read from the fitted curve at half-maximal effect; nearly all actives have a fitted effect of over 65% in size
# Measurement Parameters: U-2 OS osteosarcoma cell viability; series mostly up to 45.9 µM
Inconclusive results are not listed. The source made the active and inactive calls. The call rests on the fitted dose curve; in most records, active means well fitted cell-killing curve with a large enough effect; inconclusive means small, poorly fitted or top-dose-only effect; inactive means no such curve, though single readings can be large or run the other way.
Quantity: Potency

- COc1cc2nccc(Oc3ccc(NC(=O)C4(C(=O)Nc5ccc(F)cc5)CC4)cc3)c2cc1OC: 23.3 µM (active)

Consider the record given below.
Inquiry: Could you share which Potency value was measured for CC(C)(C)c1cnc(CSc2cnc(NC(=O)C3CCNCC3)s2)o1 ?
Reply text: 1.31 µM (active)

* * *

# Procedure Text: Quantitative High-Throughput drug screen in 47 multiple myeloma cell lines against the NCATS MIPE library collection: JIM3_ECACC cell viability assay (AID 1918963; also: nearly all actives have a fitted effect of over 35% in size; also: potency is read from the fitted curve at half-maximal effect)
# Measurement Parameters: JIM3 myeloma viability, CellTiter-Glo ATP, 48 h; series mostly up to 45.8 µM
Inconclusive results are not listed. The source made the active and inactive calls. Calls come from the whole dose curve; as a rule, active = well fitted cell-killing curve with a large enough effect; inconclusive = small, poorly fitted or top-dose-only effect; inactive = no such curve, though single readings can be large or run the other way.
Quantity: Potency

- CC1(O)CC(c2nc(-c3ccc4ccc(-c5ccccc5)nc4c3)c3c(N)nccn23)C1 (configuration not stated): 148 nM (active)
- Nc1nc(NCCNc2ncc(-n3ccnc3)c(-c3ccc(Cl)cc3Cl)n2)ccc1[N+](=O)[O-]: 5260 nM (active)
- CN1CCN(Cc2ccc(NC(=O)Nc3ccc(Oc4cc(NC(=O)C5CC5)ncn4)cc3)cc2C(F)(F)F)CC1: 148 nM (active)
- CC(=O)Nc1sc2c(c1-c1nc3ccccc3s1)CNC2: 18700 nM (active)
- CCCCCCCCCC(=O)N[C@@H](Cc1c[nH]c2ccccc12)C(=O)N[C@H](CC(N)=O)C(=O)N[C@@H](CC(=O)O)C(=O)N[C@@H]1C(=O)NCC(=O)N[C@@H](CCCN)C(=O)N[C@@H](CC(=O)O)C(=O)N[C@H](C)C(=O)N[C@@H](CC(=O)O)C(=O)NCC(=O)N[C@H](CO)C(=O)N[C@@H]([C@@H](C)CC(=O)O)C(=O)N[C@@H](CC(=O)c2ccccc2N)C(=O)O[C@@H]1C: inactive

Inquiry: Could you share which Potency value was measured for O=C(NC1CCNCC1)c1[nH]ncc1NC(=O)c1c(Cl)cccc1Cl ?
Reply text: 526 nM (active)

Inquiry: Could you share which Potency value was measured for COc1cc2c(NC3CCN(C(C)C)CC3)nc(C3CCCCC3)nc2cc1OCCCN1CCCC1 ?
Reply text: 8330 nM (active)

Inquiry: Could you share which Potency value was measured for Nc1ccccc1NC(=O)c1ccc(CNC(=O)OCc2cccnc2)cc1 ?
Reply text: 2960 nM (active)

Inquiry: Could you share which Potency value was measured for Cc1c(CN2CCN(S(C)(=O)=O)CC2)sc2c(N3CCOCC3)nc(-c3cnc(N)nc3)nc12 ?
Reply text: 66.2 nM (active)

Inquiry: Could you share which Potency value was measured for Cc1ccc(C(=O)Nc2cccc(C(F)(F)F)c2)cc1-c1ccc2nc(NCCN3CCOCC3)ncc2c1 ?
Reply text: 13200 nM (active)

Inquiry: Could you share which Potency value was measured for COc1ccc(F)c(F)c1C(=O)c1cnc(NC2CCN(S(C)(=O)=O)CC2)nc1N ?
Reply text: 1870 nM (active)

Inquiry: Could you share which Potency value was measured for Nc1ccc(C(=O)c2cc3c(ccc4ccccc43)[nH]2)cc1 ?
Reply text: 2640 nM (active)

Inquiry: Could you share which Potency value was measured for CCCCc1nc2cc(C=CC(=O)NO)ccc2n1CCN(CC)CC ?
Reply text: 2640 nM (active)

Inquiry: Could you share which Potency value was measured for O=C1CCC[C@@H]2[C@H]3CCC[N+]4([O-])CCC[C@@H](CN12)[C@@H]34 (some centres not stated) ?
Reply text: inactive

Inquiry: Could you share which Potency value was measured for CC[C@H](CO)Nc1nc(NCc2ccccc2)c2ncn(C(C)C)c2n1 ?
Reply text: 26400 nM (active)

Inquiry: Could you share which Potency value was measured for C=C1C(=CC=C2CCC[C@]3(C)[C@@H]([C@H](C)C=C[C@H](C)C(C)C)CC[C@@H]23)C[C@@H](O)C[C@@H]1O ?
Reply text: 7430 nM (active)

Inquiry: Could you share which Potency value was measured for COCCOc1ccc2c(c1)ncn2-c1ccc2cccc(N3CCC(N)CC3)c2n1 ?
Reply text: 10500 nM (active)

* * *

# Procedure Text: Quantitative High-Throughput drug screen in 47 multiple myeloma cell lines against the NCATS MIPE library collection: KMS28BM_JCRB cell viability assay (AID 1919874); also: nearly all actives have a fitted effect of over 35% in size; also: potency is read from the fitted curve at half-maximal effect
# Measurement Parameters: CellTiter-Glo ATP, 48 h; series mostly up to 45.8 µM
# From the text: PI: Beverly A. Mock Ph.D. Laboratory of Cancer Biology and Genetics, Center for Cancer Research, National Cancer Institute, National Institute of Health, Bethesda, Maryland […] 5; Detector; 425V; Luminescence; Viewlux PerkinElmer. […] 1. […] Briefly, the corresponding myeloma cell lines were screened in 1,536-well plates with 500 cells, 5-uL per well for inhibition of cell viability (assessed by measuring ATP levels with CellTiterGlo). […]
Records with an inconclusive call do not appear. Activity calls are given as the source filed them. Calls follow the shape of the dose curve; as a rule, active = well fitted cell-killing curve with a large enough effect; inconclusive = small, poorly fitted or top-dose-only effect, or effect the other way; inactive = no such curve, though single readings can be large or run the other way.
Quantity: Potency

• CC(C)=CCCC(C)=CCCC(C)=CCSc1ccccc1C(=O)O = 5.9 µM (active)
• Cc1cc(Nc2cc(N3CCN(C)CC3)nc(C=Cc3ccccc3)n2)n[nH]1 = 13.6 µM (active)
• O=C(O)c1ccc2cc(-c3ccc(O)c(C45CC6CC(CC(C6)C4)C5)c3)ccc2c1 = 1.32 µM (active)
• O=C(O)Cn1nnc(-c2cc(N3CCC(Oc4cc(F)ccc4Br)CC3)no2)n1 = inactive

Inquiry: Could you share which Potency value was measured for O=C(O)[C@H](Cc1c[nH]c2ccccc12)N1C(=O)c2ccccc2C1=O ?
Reply text: inactive

Inquiry: Could you share which Potency value was measured for Nc1ccc(C(=O)c2cc3c(ccc4ccccc43)[nH]2)cc1 ?
Reply text: 0.935 µM (active)
